Assay: yeast display, Sf9 membrane polyspecificity reagent, FACS + sequencing; frameworks hold sequencing errors
endpoint: polyreactivity (PSR sort gate)

The cases that follow already have their polyreactivity (PSR sort gate) on record.
QVQLVESGGGLVQAGGSLRLSCAASGSTFEYYAMGWYRQAPGKERELVATISIDGRTNYADSVKGRFTISRDNAKYTVYLQMNSLKPEDTAVYYCAASDLTAISSKYDYWGQGTQVTVSS	low polyreactivity
QVQLVESGGGLVQAGGSLRLSCAASGGTFRRYAMGWYRQAPGKEREIVAAITISGGNTYYADSVKGRFTISRDNAKNTVYLQMNSLNPEDTAVYYCAADYAYNKYLSVEYWGQGTQVTVSS	low polyreactivity
QVQLVESGGGLVQAGGSLRLSCAASGLTFSKYVMGWYRQAPGKERELVAGISRSSGSTYYADSVKGRFTISRDNAKNTVYLQMNSLKPEDTAVYYCAARARRKYDYWGQGTQVTVSS	high polyreactivity
QVQLVESGGGLVQAGGSLRLSCAASGSIISYYAMGWYRQAPGKERELVAVINSGSTNYADSVKGRFTLSRDNSKNTVYLQMHSLNPEDTAVYYCAAYSLLYLLEQYTTAPYDYWGQGTQVTVSS	low polyreactivity
QVQLVESGGGLVQAGGSLRLSCAASGITFSRYAMGWYRQAPGKERELVATITFSGTSTFYADSVKGRFTISRDNAKNTVYLQMNSLKPEDTAVYYCARLRFGSWSTYYYWGQGTQVTVSS	low polyreactivity
QVQLVESGGGLVQAGGSLRLSCAASGSTFGYNAMGWYRQAPGKEREFVAAITRRGGNTYYADSVKGRFTISRDNAKNTVYLQMNSLKPEDTAVYYCAARYLQGRYDYWGQGTQVTVSS	high polyreactivity

Task item: Which polyreactivity (PSR sort gate) value belongs to QVQLVESGGGLVQAGGSLRLSCAASGSILKSYAMGWYRQAPGKERELVAAITYRDGSTYYADSVKGRFTISRDNAKNTVYLQMNSLKPEDTAVYYCAAEPSWWNVFYPGYNYWGQGTQVTVSA ?
Reply: high polyreactivity

Task item: Which polyreactivity (PSR sort gate) value belongs to QVQLVESGGGLVQAGGSLRLSCAASGSTFATYAMGWYRQAPGKERELVAAITLRGGRTYYADSVKGRFTISRDNAKNTVYLQMNSLKPEDTAVYYCAAEYYYLSFGLTWWRGFDYWGQGTQVTVSS ?
Reply: high polyreactivity

Task item: Which polyreactivity (PSR sort gate) value belongs to QVQLVESGGGLVQAGGSLRLSCASSGFTFARYAMGWYRPAPGKEREFVAAIDKSGGSTYYADSVTGRFTISRDNAKNTVYLQMNSLKPEDTAVYYCAAGFGRVFSSIYGYWGQGTQVTVSS ?
Reply: high polyreactivity

Task item: Which polyreactivity (PSR sort gate) value belongs to QVQLVESPGGLVQAGGSLRLSCAASGSIFGSYAMGWYRQEPGKEREFVAVITSASTNYADSVKGRFTISRDNAKNTVNLQLNSLKPEDTAVYYCNKRGTRIRRTNKSHGVDYWGQGTQVTVSS ?
Reply: low polyreactivity

Task item: Which polyreactivity (PSR sort gate) value belongs to QVQHVESGGALVQAAGSLSLRCAASGSTFGYNAMGWYRQAPSKEMELVAVITDSGGSSYYADSVKGRFTISRDNPKNTVYVQMHSLNPEDTAVYYCAKFYGLVVSGHVILSGFEYWGQGTLVTVSS ?
Reply: low polyreactivity
